B1: WEE1 (parent)
chain: FLGSSFSPVRCGGPGDASPRGCGA

Variants of: B1
experiment-notes: protein stability index of a GFP-peptide fusion (GPS, HEK-293T) (PSI 1-6); higher = more stable;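 note: lentivirally expressed fusions sorted by FACS into six bins by GFP to DsRed ratio, PSI derived from sequencing read proportions per bin multiplied by bin number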
protocol-conditions: c terminus: a fixed tail appended
measured-parameter: protein stability index
In your answer, state the number alone without any accompanying words.

protein stability index for S18C is 1.86

Reported protein stability index of R20A : 2.27

protein stability index measured on A24V = 1.6

Query D16K yields protein stability index of 1.81

What the record says about S4K : protein stability index is 2.34

Values from the supplement of paper PMC10567573
